- Target system: Hck (UniProt P08631)
- Sequence (P08631 whole entry, looked up): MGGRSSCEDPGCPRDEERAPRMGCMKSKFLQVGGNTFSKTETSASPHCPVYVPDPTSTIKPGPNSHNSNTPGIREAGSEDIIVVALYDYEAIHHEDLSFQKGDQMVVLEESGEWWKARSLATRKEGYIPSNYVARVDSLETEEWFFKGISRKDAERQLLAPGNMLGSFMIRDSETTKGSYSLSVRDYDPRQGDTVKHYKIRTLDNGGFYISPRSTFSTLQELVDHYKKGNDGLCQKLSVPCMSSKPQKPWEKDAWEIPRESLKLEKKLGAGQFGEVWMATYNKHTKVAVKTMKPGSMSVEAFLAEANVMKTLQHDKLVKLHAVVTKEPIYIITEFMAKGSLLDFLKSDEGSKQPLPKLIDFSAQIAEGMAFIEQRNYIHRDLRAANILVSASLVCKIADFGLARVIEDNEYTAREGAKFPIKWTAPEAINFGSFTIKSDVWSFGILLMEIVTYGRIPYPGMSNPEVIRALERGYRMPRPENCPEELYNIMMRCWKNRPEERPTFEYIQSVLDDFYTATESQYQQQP
- Protocol text: phosphorylation enrichment, bacterial display (enrichment ratio); higher = better substrate or ligand; peptides without Tyr show the background;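 note: 11-residue human phosphosite peptides and single-mutation variants displayed on the E. coli surface, counted by deep sequencing, each peptide's frequency after selection divided by its frequency in the unselected input library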;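 note: frequency after pTyr selection over input frequency; kinase dosed for 20-30% of maximal phosphorylation in three min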
Heads up, the class ranges for phosphorylation enrichment are low group = under 0.5, middle group = from 0.5 up to 0.6, high group = 0.6 and over

Use these answered entries as a reference point.
{"Seq text": "RLLVIYPWTQR [HBG2_Y36_V35I]", "Target system": "Hck (UniProt P08631)", "Assigned category": "high group"}
{"Seq text": "CPSLLYSPVSS [CAMKK2_Y128_P127L]", "Target system": "Hck (UniProt P08631)", "Assigned category": "high group"}
{"Seq text": "AESPEYVHMFT [FAM111A_Y511_YF]", "Target system": "Hck (UniProt P08631)", "Assigned category": "high group"}

Form: Item = GNEEAYGRSHI [FAM171B_Y522] ; Class = ?
low group

Form: Item = AGQEGYDRLRP [RAC1_Y64_D63G] ; Class = ?
middle group
